# Tested on: panel of nearly 500 cancer cell lines
# testSummary: Cancer Cell Line Encyclopedia profiling, 3-day CellTiter-Glo
# Assay type: cell-based
# measurementParameters: Homo sapiens, NCI-H460
pIC50: −log10 of the molar value.
measure: pIC50

Exercise: Fill blank: measured pIC50 of the molecule "CN(C)C(=O)c1cc2cnc(Nc3ccc(N4CCNCC4)cn3)nc2n1C1CCCC1" is ____.
Key: < 5.10

====

# System: panel of nearly 500 cancer cell lines
# testSummary: Cancer Cell Line Encyclopedia profiling, 3-day CellTiter-Glo
# Type: cell-based
# measurementParameters: snu449 (liver); read-out: IC50
measure: IC50

Exercise: Fill blank: measured IC50 of the molecule "CC(=O)c1c(C)c2cnc(Nc3ccc(N4CCNCC4)cn3)nc2n(C2CCCC2)c1=O" is ____.
Key: > 8 µM
